TARGET UNDER TEST: human GLP-1 receptor (hGLP1R) (human, UniProt P43220 24-463)
RUN DESCRIPTION: cell-based or functional assay
Numbered stars: 1 amine (or outer) side, 2 acyl side, 3 side chain; on linkers, the order of the positions; unused ones are H or OH. Square brackets hold non-standard residues; d marks the D form. Side chains are listed from the residue outwards. Ends that are not written are not given here. * marks the point of attachment. C20 diacid = O=C(O)CCCCCCCCCCCCCCCCCCC(=O)*; C18 diacid = O=C(O)CCCCCCCCCCCCCCCCC(=O)*; γGlu = O=C(O)[C@H](CCC(=O)[*:2])N[*:1]; AEEA = NCCOCCOCC(=O)O; Aib = CC(C)(N)C(=O)O
Kindly state PEC50 hGLPR1 for each of the entries shown.

Complete the entry with PEC50 hGLPR1 for H[Aib]EGTFTSDVSRLK([AEEA-AEEA-γGlu-C18 diacid])EGAAEQRFLQHLVEAE-NH2 [SEQ ID NO: 204]
11 -log M

Complete the entry with PEC50 hGLPR1 for H[Aib]EGTFTSDVSELLEEA[Aib]LQRFLEK([AEEA-AEEA-γGlu-C20 diacid])LVEAA-NH2 [SEQ ID NO: 214]
10.9 -log M

Complete the entry with PEC50 hGLPR1 for H[Aib]EGTFTSDVSRLK([AEEA-AEEA-γGlu-C20 diacid])EEA[Aib]LQRFLEHLVEAA-NH2 [SEQ ID NO: 208]
10.6 -log M

Complete the entry with PEC50 hGLPR1 for H[Aib]EGTFTSDVSRLK([AEEA-AEEA-γGlu-C20 diacid])EEA[Aib]AQRFLEHLVEAA-NH2 [SEQ ID NO: 215]
11 -log M

Complete the entry with PEC50 hGLPR1 for H[Aib]EGTFTSDVSRLLEEA[Aib]LQRFLEK([AEEA-AEEA-γGlu-C20 diacid])LVEAA-NH2 [SEQ ID NO: 212]
10.7 -log M
